protocol.description: Blood-to-plasma partition ratio
Assay type: in vitro ADME
experimental.parameters: blood
endpoint.label: blood plasma ratio

smiles.representation: CC#CC(=O)N1CCC[C@H]1c1nc(-c2ccc(C(=O)Nc3ccccn3)cc2)c2c(N)nccn12
reported.measurement: 0.787

====

protocol.description: Physicochemical properties
experimental.parameters: pKa (first value), Experimental data

smiles.representation: CC#CC(=O)N1CCC[C@H]1c1nc(-c2ccc(C(=O)Nc3ccccn3)cc2)c2c(N)nccn12
pKa: 3.54

====

system.tested: CYP3A4 (Homo sapiens, UniProt P08684)
Sequence (P08684 whole entry): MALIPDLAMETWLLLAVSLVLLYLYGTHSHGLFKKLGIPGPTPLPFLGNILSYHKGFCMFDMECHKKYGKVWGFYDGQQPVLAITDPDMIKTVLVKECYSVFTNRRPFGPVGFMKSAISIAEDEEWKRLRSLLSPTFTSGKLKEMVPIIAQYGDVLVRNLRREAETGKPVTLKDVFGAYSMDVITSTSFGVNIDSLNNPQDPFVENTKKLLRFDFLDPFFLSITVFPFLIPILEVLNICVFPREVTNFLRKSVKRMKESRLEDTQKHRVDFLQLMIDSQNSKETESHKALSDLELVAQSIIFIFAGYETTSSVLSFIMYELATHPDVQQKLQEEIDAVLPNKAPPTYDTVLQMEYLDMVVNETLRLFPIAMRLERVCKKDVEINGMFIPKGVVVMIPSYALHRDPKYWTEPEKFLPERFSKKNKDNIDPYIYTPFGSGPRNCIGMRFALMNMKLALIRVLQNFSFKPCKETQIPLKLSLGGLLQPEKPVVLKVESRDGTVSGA

smiles.representation: CC#CC(=O)N1CCC[C@H]1c1nc(-c2ccc(C(=O)Nc3ccccn3)cc2)c2c(N)nccn12
scale.unit: µM
Ki: 23.9

====

protocol.description: PBPK model input parameters predicted, optimized or estimated in Simcyp
Set-up: species or system human
experimental.parameters: human, liver microsomes

smiles.representation: CC#CC(=O)N1CCC[C@H]1c1nc(-c2ccc(C(=O)Nc3ccccn3)cc2)c2c(N)nccn12
scale.unit: µL/min/mg
microsomal CLint: 290

====

system.tested: CYP2C8 (Homo sapiens)
Sequence (P10632 whole entry): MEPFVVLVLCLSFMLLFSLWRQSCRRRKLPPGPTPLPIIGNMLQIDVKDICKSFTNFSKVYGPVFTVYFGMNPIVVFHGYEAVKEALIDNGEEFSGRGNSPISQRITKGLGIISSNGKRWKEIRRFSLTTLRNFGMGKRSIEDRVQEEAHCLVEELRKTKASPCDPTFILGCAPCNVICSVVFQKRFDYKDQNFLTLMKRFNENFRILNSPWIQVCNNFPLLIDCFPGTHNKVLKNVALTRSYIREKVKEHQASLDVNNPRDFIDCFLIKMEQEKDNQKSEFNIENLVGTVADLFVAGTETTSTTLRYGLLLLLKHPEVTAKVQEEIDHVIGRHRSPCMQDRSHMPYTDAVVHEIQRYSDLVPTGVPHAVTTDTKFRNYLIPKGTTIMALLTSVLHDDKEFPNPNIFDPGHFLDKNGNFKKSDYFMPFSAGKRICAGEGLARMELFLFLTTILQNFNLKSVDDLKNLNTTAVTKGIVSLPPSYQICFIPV
protocol.description: In vitro competitive and time-dependent inhibition of CYP2C8
Format: in vitro ADME
pKi: −log10 of the molar value.
endpoint.label: pKi

smiles.representation: CC#CC(=O)N1CCC[C@H]1c1nc(-c2ccc(C(=O)Nc3ccccn3)cc2)c2c(N)nccn12
reported.measurement: 4.69

These data points were gathered from paper PMC6656940.
